Cited source: patent US20250250357A1

Reported OD450 values are given for each entry in this list.
TARGET OF ASSAY: T1, human MSLN-R1-his protein (human, UniProt Q13421 296-390)
T1 construct: Made in HEK293E cells, purified on nickel column; also called hMSLN-R1-his; human MSLN-R1 protein; not shown: His tag
T1 chain: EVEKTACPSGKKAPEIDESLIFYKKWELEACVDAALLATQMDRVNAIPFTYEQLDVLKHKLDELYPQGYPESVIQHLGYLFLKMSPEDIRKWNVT
PROCEDURE TEXT: ELISA, coated antigen, antibody 0.2 nM
Lab note: record the figure alone, no unit after it.

BINDER	VALUE TYPE	READING
S009-F7.33.24 chimeric antibody (antibody, human IgG1, kappa, V domains shown, Human-murine chimeric antibody, human IgG1/kappa constant regions) VH: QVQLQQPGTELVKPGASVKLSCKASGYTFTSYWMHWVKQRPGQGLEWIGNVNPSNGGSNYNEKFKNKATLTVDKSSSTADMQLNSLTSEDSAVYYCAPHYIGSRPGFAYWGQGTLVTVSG VL: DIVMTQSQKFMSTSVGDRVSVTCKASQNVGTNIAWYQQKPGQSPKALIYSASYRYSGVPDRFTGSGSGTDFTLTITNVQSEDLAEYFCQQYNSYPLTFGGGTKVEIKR	OD450	0.05
S009-F7.65.13 chimeric antibody (antibody, human IgG1, kappa, V domains shown, Human-murine chimeric antibody, human IgG1/kappa constant regions) VH: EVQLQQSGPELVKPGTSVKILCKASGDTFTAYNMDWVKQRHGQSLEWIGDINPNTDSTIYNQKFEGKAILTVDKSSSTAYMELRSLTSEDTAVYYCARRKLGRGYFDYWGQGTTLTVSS VL: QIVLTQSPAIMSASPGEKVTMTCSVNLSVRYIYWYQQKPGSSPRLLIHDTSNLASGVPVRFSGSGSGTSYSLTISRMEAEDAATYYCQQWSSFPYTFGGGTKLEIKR	OD450	0.05

Query string: Please give measured OD450 of the following entry: S009-F7.53.2 chimeric antibody (antibody, human IgG1, kappa, V domains shown, Human-murine chimeric antibody, human IgG1/kappa constant regions) VH: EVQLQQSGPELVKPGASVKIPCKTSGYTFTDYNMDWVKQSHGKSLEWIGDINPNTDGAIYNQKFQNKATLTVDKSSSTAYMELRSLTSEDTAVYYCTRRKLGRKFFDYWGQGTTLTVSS VL: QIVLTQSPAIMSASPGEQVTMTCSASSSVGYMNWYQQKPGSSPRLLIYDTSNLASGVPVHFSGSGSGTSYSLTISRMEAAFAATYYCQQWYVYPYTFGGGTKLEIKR
Result string: 0.04
